# TGT: T1, ZIKV-VLP (Native Antigen Inc.) (Zika virus)
# T1 construct: also called Zika VLP; ZVLP
# ASSAY_TEXT: BLI binning on ZIKV-VLP; 1st mAb (row): 270-12
QUANTITY_KIND: response of 2nd mAb
# respond with the number and nothing more

Query block: Which response of 2nd mAb value belongs to anti-ZIKV antibody 289-3 (antibody, V domains shown, also called clone 289-3; subclone 289-3) VH: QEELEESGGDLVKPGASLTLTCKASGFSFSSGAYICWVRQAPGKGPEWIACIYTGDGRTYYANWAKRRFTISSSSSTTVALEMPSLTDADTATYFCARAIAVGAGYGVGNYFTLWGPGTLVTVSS VL: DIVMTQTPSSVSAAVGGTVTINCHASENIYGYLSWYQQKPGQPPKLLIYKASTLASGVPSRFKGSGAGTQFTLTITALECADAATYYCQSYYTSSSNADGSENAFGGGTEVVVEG ?
Result block: 0.0064

Values compiled from patent US20220332800A1.
